target: EPHB1 (UniProt P54762); assay: phosphorylation enrichment, bacterial display (enrichment ratio); higher = better substrate or ligand; peptides without Tyr show the background;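 note: 11-residue human phosphosite peptides and single-mutation variants displayed on the E. coli surface, counted by deep sequencing, each peptide's frequency after selection divided by its frequency in the unselected input library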;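 note: frequency after pTyr selection over input frequency; kinase dosed for 20-30% of maximal phosphorylation in three min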
Sequence (P54762 whole entry, looked up): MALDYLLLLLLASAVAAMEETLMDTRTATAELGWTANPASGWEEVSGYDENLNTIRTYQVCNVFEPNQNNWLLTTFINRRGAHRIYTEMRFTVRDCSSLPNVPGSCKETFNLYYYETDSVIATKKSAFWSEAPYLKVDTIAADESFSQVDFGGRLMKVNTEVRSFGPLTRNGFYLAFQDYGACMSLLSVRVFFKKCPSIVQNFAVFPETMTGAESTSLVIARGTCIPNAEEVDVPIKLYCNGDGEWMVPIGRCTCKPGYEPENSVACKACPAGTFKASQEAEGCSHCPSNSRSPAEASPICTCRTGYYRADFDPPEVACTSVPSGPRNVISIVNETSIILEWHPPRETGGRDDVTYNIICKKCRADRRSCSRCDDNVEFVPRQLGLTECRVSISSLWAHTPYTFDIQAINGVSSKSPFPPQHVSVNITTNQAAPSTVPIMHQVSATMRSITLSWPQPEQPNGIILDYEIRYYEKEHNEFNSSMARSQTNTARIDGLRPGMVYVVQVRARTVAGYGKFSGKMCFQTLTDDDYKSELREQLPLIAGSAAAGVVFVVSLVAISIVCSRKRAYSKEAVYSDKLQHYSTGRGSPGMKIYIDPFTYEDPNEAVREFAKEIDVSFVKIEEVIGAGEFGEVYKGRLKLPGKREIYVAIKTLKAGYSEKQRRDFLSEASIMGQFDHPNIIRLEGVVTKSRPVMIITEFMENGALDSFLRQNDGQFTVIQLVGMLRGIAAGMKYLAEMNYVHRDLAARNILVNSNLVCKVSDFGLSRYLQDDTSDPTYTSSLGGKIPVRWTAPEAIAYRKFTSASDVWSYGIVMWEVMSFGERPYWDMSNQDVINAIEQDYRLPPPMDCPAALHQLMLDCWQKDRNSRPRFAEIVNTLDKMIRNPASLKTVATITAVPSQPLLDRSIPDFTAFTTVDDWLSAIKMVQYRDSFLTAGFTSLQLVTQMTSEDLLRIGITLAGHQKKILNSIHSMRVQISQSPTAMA
Items are presented alongside their recorded phosphorylation enrichment.

Some solved cases for reference:
1. KDHPDYEFQPR [SOX9_Y172_K173E_YF]; 1.05
2. NFFEFYVDDPP [GCHFR_Y48_YF]; 0.704
3. IGCHAYGDQFR [IDH1_Y135_R132C_YF]; 0.516

May I ask what phosphorylation enrichment has been recorded for TRTEAYAVSSF ?
0.442

How about KFDLMYAKWAF [TUBA3E_Y399] ?
0.783

----------
molecular target: FGFR1 (UniProt P11362); assay: phosphorylation enrichment, bacterial display (enrichment ratio); higher = better substrate or ligand; peptides without Tyr show the background
Sequence (P11362 whole entry, looked up): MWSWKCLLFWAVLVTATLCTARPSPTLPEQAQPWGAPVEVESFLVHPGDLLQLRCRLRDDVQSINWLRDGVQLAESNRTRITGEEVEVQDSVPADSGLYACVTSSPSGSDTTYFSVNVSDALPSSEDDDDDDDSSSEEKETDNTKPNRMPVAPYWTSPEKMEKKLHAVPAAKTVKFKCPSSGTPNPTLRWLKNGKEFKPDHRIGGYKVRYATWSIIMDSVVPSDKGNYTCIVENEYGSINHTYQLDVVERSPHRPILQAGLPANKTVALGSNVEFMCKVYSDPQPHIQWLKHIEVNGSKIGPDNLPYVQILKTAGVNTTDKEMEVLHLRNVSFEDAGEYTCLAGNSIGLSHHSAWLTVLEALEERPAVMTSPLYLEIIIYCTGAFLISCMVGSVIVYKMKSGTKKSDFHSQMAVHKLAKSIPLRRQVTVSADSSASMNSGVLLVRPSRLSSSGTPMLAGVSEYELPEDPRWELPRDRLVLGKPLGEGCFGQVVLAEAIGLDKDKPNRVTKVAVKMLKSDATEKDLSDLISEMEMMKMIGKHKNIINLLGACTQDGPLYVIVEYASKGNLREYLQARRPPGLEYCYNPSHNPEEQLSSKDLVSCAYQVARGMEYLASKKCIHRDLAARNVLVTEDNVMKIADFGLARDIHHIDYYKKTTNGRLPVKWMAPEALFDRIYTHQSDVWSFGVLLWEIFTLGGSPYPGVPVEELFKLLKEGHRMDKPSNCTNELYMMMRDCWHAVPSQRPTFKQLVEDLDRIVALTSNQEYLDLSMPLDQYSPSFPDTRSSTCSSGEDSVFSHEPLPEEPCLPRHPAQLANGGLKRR
Items are presented alongside their recorded phosphorylation enrichment.
# answer = number (no unit)

Some solved cases for reference:
1. TGEKPYECVQC [ZNF24_Y335]; 0.501
2. KDQGTYEDFVE [MYL6_Y86_YF]; 0.906

Request: phosphorylation enrichment, test system FGFR1 (UniProt P11362), entry LSGFGYRLSDQ [PDCD6_Y124]
0.787

How about DTNIAYWLHPR [POMT1_Y581] ?
1.84

How about LAEMNYVHQDL [EPHB1_Y740_R743Q] ?
0.581

----------
Items are presented alongside their recorded phosphorylation enrichment.
biological target: FGFR1 (UniProt P11362); test: phosphorylation enrichment, bacterial display (enrichment ratio); higher = better substrate or ligand; peptides without Tyr show the background
# answer = number (no unit)

Some solved cases for reference:
1) IHYPPYTDWNQ [ALDH3B2_Y365]; 1.14
2) ALECLYRREKR [TEKT5_Y195_H196R]; 0.584
3) DCLASYLDKVR [KRT10_Y160_R156C]; 0.56
4) ALCHFYKLNII [ETV6_Y402_R399C_YF]; 0.479
5) LGKGSYAKVKS [TSSK2_Y23]; 0.955

May I ask what phosphorylation enrichment has been recorded for EIVYVYVKKRS [DNAI2_Y7] ?
0.52

How about AGAKTYKMSMA [CPS1_Y309] ?
0.309

How about FSGKAYADEEQ [CRIM1_Y826_R831Q] ?
0.459

How about SVTCTYSPDLN [TP53_Y126_A129D] ?
0.533

How about VFFGSYSRPFG [NKAP_Y104_YF] ?
0.522

----------
Items are presented alongside their recorded phosphorylation enrichment.
target: MERTK (UniProt Q12866); assay: phosphorylation enrichment, bacterial display (enrichment ratio); higher = better substrate or ligand; peptides without Tyr show the background
Sequence (Q12866 whole entry, looked up): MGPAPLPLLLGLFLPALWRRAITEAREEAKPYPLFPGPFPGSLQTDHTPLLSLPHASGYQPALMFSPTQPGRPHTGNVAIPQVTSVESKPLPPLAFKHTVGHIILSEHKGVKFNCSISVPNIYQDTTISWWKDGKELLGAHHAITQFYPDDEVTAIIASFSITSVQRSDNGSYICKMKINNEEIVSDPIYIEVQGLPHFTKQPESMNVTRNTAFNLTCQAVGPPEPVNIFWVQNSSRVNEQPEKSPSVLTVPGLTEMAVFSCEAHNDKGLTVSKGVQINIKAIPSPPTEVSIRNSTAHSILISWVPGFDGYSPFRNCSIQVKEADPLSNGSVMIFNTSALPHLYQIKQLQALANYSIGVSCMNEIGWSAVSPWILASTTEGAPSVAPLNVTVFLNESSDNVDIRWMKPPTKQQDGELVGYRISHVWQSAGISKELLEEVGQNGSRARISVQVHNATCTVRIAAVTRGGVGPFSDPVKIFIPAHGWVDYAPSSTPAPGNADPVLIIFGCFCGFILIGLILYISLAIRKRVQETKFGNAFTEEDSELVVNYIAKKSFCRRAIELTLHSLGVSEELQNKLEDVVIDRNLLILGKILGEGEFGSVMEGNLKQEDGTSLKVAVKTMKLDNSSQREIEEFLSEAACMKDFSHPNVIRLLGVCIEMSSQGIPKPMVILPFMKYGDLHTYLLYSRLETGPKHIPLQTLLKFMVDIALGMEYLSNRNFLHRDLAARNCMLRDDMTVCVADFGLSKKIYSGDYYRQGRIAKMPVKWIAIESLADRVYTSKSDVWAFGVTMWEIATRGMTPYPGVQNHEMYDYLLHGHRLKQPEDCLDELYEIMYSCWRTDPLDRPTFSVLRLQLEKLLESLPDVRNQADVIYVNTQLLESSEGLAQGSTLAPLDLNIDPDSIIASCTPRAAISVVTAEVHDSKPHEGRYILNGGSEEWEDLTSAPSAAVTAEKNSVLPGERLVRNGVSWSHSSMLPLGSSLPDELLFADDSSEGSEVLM
# answer = number (no unit)

May I ask what phosphorylation enrichment has been recorded for NDKLCYEVSSP [CDH13_Y66_R65C] ?
0.394

How about ENFDDYMKEVG [FABP4_Y20] ?
0.396

How about SAGSSYSISSI [PAX5_Y179_G183S] ?
0.492

How about VFAADYFKLLG [ROR2_Y645_YF] ?
0.394

How about NLNGKYFKPRA [ANGPTL3_Y417_N418Y_YF] ?
0.389

How about GPGGDYAAMGA [ERBB3_Y1276] ?
0.511

How about DTLASYLDKVR [KRT12_Y139_R135T] ?
0.411
